// provenance: patent US20200181261A1

# target-system: T1, human CEACAM6, full-length, on cells (human, UniProt P40199 35-320)
# T1 construct: used both for transfected HeLa cells and for tumor cell lines that express CEACAM6 endogenously; also called TPP-4639; HeLa human CEACAM6
# T1 sequence: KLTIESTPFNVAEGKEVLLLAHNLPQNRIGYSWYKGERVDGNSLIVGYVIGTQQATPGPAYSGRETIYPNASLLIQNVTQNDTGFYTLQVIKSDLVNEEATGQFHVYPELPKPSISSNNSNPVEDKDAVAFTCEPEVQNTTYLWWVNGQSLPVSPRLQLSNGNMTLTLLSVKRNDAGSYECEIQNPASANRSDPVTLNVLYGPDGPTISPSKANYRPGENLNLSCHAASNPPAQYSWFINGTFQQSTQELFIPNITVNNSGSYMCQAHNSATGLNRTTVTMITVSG
# measurement-description: FACS, transfected HeLa cells
# Protocol: For FACS experiments HeLa wild type cells were cultured in RPMI-1640, 10% FCS, while CEACAM-receptor transfected HeLa cells received in addition 0.5% Gentamycin (stock 10 mg/ml, Fa. PAA) and 200 μg/ml Hygromycin B (stock 50 mg/ml, Invitrogen). […] Cells were washed in cold FACS buffer (PBS w/o Ca²⁺/Mg²⁺ and heat-inactivated 3% FCS) and were counted using a countess machine (Invitrogen). […]
What EC50 was measured for each of the following?
Numbers only, in nM.

query: Param item = TPP-3187 (antibody, mouse IgG1, V domains shown, murine hybridoma antibody, mouse IgG1; also called 792.15C4F4) VH: QVTLKESGPGILQPSQTLSLTCSFSGFSLTTYGIGVGWIRQPSGKGLEWLAHIWWNDNKYYNTALKSRLTISKDTSNNQVFLKIASVDTADTATYYCARISLPYFDYWGQGTTLTVSS VL: DIVMTQSQKFMSTSVGDRVSITCKASQNVGTAVAWYQQKPGQSPKLLIYSASNRYTGVPDRFTGSGSGTDFTLTISNMQSEDLADYFCQQYNNYPLTFGAGTKLELK ; retrieve measured EC50.
result: 0.35

query: Also check TPP-2971 (antibody, mouse IgG1, V domains shown, murine hybridoma antibody, mouse IgG1; also called 792.15H12C9) VH: QVTLKESGPGILQPSQTLSLTCSFSGFSLSTYGIGVGWIRQPSGKDLEWLAHIWWNDNKYYNTALKSRLTISKDTSNNQVFLKIASVDTADTATYYCARISLPYFDYWGQGTTLTVSS VL: DIVMTQSQKFMSTSVGDRVSITCKASQNVGTAVAWYQQKPGQSPKLLIYSASNRYTGVPDRFTGSGSGTDFTLTISNMQSEDLADYFCQQYSSYPLTFGAGTKLELK
result: 0.5

I need EC50 for every entry listed below, if you could help.
1. TPP-3323 (antibody, human IgG2, kappa, V domains shown, human IgG2 chimera; also called TPP-3187X1-hIgG2; hIgG2 chimera of TPP-3187) VH: QVTLKESGPGILQPSQTLSLTCSFSGFSLTTYGIGVGWIRQPSGKGLEWLAHIWWNDNKYYNTALKSRLTISKDTSNNQVFLKIASVDTADTATYYCARISLPYFDYWGQGTTLTVSS VL: DIVMTQSQKFMSTSVGDRVSITCKASQNVGTAVAWYQQKPGQSPKLLIYSASNRYTGVPDRFTGSGSGTDFTLTISNMQSEDLADYFCQQYNNYPLTFGAGTKLELKR
2. TPP-3308 (antibody, human IgG2, kappa, V domains shown, human IgG2 chimera; also called TPP-2971X1-hIgG2Kappa; hIgG2 chimera of TPP-2971) VH: QVTLKESGPGILQPSQTLSLTCSFSGFSLSTYGIGVGWIRQPSGKDLEWLAHIWWNDNKYYNTALKSRLTISKDTSNNQVFLKIASVDTADTATYYCARISLPYFDYWGQGTTLTVSS VL: DIVMTQSQKFMSTSVGDRVSITCKASQNVGTAVAWYQQKPGQSPKLLIYSASNRYTGVPDRFTGSGSGTDFTLTISNMQSEDLADYFCQQYSSYPLTFGAGTKLELKR
3. TPP-3707 (antibody, human IgG2, kappa, V domains shown, also called 090E-M007-A09-Mat2-hIgG2-hIgG2Kappa) VH: EVQLVESGGGLVQPGGSLRLSCAASGFTFSLYQMHWVRQAPGKGLEWVSWISFSGGNTGYADSVKGRFTISRDNSKNTLYLQMNSLRAEDTAVYYCARATGYSSPWYLDPWGQGTLVTVSS VL: DIQMTQSPSSLSASVGDRVTITCQASHEIDNYLNWYQQKPGKAPKLLIYDAYWSKTGVPSRFSGSGSGTDFTLTISSLQPEDIATYYCQGYDDLSVTFGGGTKVDIKR
4. TPP-3821 (antibody, human IgG2, kappa, V domains shown, humanized from TPP-3187, human IgG2; also called 3187HU2-hIgG2Kappa) VH: QVTLRESGPALVKPTQTLTLTCTFSGFSLSTYGIGVGWIRQPPGKALEWLAHIWWNDNKYYSTSLKTRLTISKDTSKNQVVLTMTNMDPVDTATYYCARISLPYFDYWGQGTLVTVSS VL: DIQLTQSPSFLSASVGDRVTITCKASQNVGTAVAWYQQKPGKAPKLLIYSASNRYTGVPSRFSGSGSGTEFTLTISSLQPEDFATYYCQQYNNYPLTFGGGTKVEIKR
5. TPP-3820 (antibody, human IgG2, kappa, V domains shown, humanized from TPP-3187, human IgG2; also called 3187HU1-hIgG2Kappa) VH: QVTLRESGPALVKPTQTLTLTCTFSGFSLTTYGIGVGWIRQPPGKGLEWLAHIWWNDNKYYSTSLKTRLTISKDTSKNQVVLTMTNMDPVDTATYYCARISLPYFDYWGQGTLVTVSS VL: DIQLTQSPSFLSASVGDRVTITCKASQNVGTAVAWYQQKPGKAPKLLIYSASNRYTGVPSRFSGSGSGTEFTLTISSLQPEDFATYYCQQYNNYPLTFGGGTKVEIKR

result:
[0.6, 0.45, 19, 1, 1]
